system: Muscarinic acetylcholine receptor M4 (Homo sapiens) (UniProt P08173)
Sequence (P08173 whole entry): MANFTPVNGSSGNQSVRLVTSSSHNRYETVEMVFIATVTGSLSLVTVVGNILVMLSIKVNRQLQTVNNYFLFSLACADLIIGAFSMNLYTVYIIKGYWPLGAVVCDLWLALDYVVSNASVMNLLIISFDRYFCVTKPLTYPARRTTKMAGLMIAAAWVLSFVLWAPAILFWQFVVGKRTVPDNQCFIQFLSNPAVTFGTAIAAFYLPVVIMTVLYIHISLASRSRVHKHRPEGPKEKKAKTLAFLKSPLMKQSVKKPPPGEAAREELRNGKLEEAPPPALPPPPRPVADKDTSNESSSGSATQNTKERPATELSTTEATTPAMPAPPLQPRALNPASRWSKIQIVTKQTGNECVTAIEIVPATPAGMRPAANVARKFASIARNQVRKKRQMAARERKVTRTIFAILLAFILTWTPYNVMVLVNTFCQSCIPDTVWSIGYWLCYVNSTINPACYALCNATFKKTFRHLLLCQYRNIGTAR
assay method text: Positive allosteric modulation at human M4 mAChR expressed in Flp-In-CHO cells co-expressing CAMYEL biosensor assessed as ACh-mediated cAMP signalling co-operativity (log alpha beta) incubated for 5 mins by BRET assay
Type: functional, cell-based
condition parameters: filed as positive allosteric modulator
assay readout: log(activity)

[[record]]
smiles_str = "Cc1ccc(-c2cnn(CC3CCCC3)c2)c(-c2ccc(F)c(F)c2)n1"
assay_readout = "log(activity)"
value_reported = 2.65

[[record]]
smiles_str = "Cc1ccc(-c2cnn(CC3CCCC3)c2)c(-c2cccc(C(=O)N(C)C)c2)n1"
assay_readout = "log(activity)"
value_reported = 2.03

[[record]]
smiles_str = "Cc1ccc(-c2cnn(CC3CCCC3)c2)c(-c2ccc3c(c2)C(=O)N(C)C3)n1"
assay_readout = "log(activity)"
value_reported = 2.34

[[record]]
smiles_str = "Cc1ccc(-c2cnn(CC3CCCC3)c2)c(-c2ccc(N)c([N+](=O)[O-])c2)n1"
assay_readout = "log(activity)"
value_reported = 1.91

[[record]]
smiles_str = "Cc1ccc(-c2cnn(CC3CCCCC3)c2)c(-c2ccc3c(c2)C(=O)N(C)C3)n1"
assay_readout = "log(activity)"
value_reported = 2.01

[[record]]
smiles_str = "CN1Cc2ccc(-c3ncccc3-c3cnn(CC4CCCC4)c3)cc2C1=O"
assay_readout = "log(activity)"
value_reported = 2.47

[[record]]
smiles_str = "CN1Cc2ccc(-c3nccnc3-c3cnn(CC4CCCC4)c3)cc2C1=O"
assay_readout = "log(activity)"
value_reported = 1.81

[[record]]
smiles_str = "Cc1ccc(-c2cnn(CC3CC3)c2)c(-c2ccc3c(c2)C(=O)N(C)C3)n1"
assay_readout = "log(activity)"
value_reported = 2.22

[[record]]
smiles_str = "Cc1ccc(-c2cnn(CC3CCCC3)c2)c(-c2ccccc2)n1"
assay_readout = "log(activity)"
value_reported = 2.46

